- measurementNotes: cn = amount concentration of the nth substance listed, in mol/dm3
- testContext: 323.15 K; 101.3 kPa; Liquid; Vibrating tube method; c1 = 1.5
# key: entry, value: mass density
Give just the numeric value; kg/m3 need not be written.

[Br-].[K+] [potassium bromide] + O : 1102.44
[Cl-].[Na+] [sodium chloride] + O : 1044.21
[Cl-].[K+] [potassium chloride] + O : 1047.03

Now take the following compound into account.
Tell us which mass density value is on record for CC(=O)[O-].[K+] [potassium ethanoate] + O
1054.37

---

- measurementNotes: cn = amount concentration of the nth substance listed, in mol/dm3
- testContext: 308.15 K; 101.3 kPa; Liquid; Vibrating tube method; c1 = 2.5
observedProperty: mass density (kg/m3)
Give just the numeric value; kg/m3 need not be written.

Worked examples follow.
CC(=O)[O-].[K+] [potassium ethanoate] + O : 1103.93
[Cl-].[Na+] [sodium chloride] + O : 1083.71
[Br-].[K+] [potassium bromide] + O : 1193.88

Now take the following compound into account.
Tell us which mass density value is on record for [Cl-].[K+] [potassium chloride] + O
1099.06

Data provenance: the NIST ThermoML archive (doi:10.1016/j.jct.2008.12.011)
